- measurement.target: HIV-1 protease (Human immunodeficiency virus type 1 group M subtype B)
- Construct: Purified HIV-1 protease was obtained as described above; made in house; host or cells: E. coli K12 L507/pHP10D (NRRL B-18560)
- protocol.summary: biochemical
- study.conditions: read-out: Fluorescence Assay IC50; […]; room temperature, 16 hours with substrate
metric: IC50 (nM)
// units = nM; emit number, no label

## Task Which measured IC50 belongs to Cc1c(NS(C)(=O)=O)cccc1C(=O)N[C@@H](Cc1ccccc1)[C@H](O)CN1C[C@H]2CCCC[C@H]2C[C@H]1C(=O)NC(C)(C)C [Example 36] , tested on HIV-1 protease (Human immunodeficiency virus type 1 group M subtype B)?
## Result 101

Taken from patent US5461154A.
